Test system: BT-474
Assay summary: Antiproliferative activity against human BT-474 cells assessed as cell growth inhibition incubated for 5 days by MTT assay
Type: functional, cell-based
Applied conditions: BT-474, 120 h
pIC50: −log10 of the molar value.
Returns 1 (yes) if the recorded pIC50 is greater than or equal to 5, and 0 (no) otherwise.

structure=Cc1cc(Nc2nc(NCc3ccc(F)cc3F)nc3c2cnn3C(C)C)n[nH]1 label="0 (no)"
structure=Cc1cc(Nc2nc(NCc3ccc(F)cc3F)nc3c2cnn3C2CCNCC2)n[nH]1 label="1 (yes)"
structure=Cc1cc(Nc2nc(NCc3ccc(Cl)cc3)nc3c2cnn3C2CCNCC2)n[nH]1 label="1 (yes)"
structure=Cc1cc(Nc2nc(NCc3ccc(Br)cc3)nc3[nH]ncc23)n[nH]1 label="1 (yes)"

* * *

System: MDA-MB-231
Assay summary: Antiproliferative activity against human MDA-MB-231 cells assessed as cell growth inhibition incubated for 5 days by MTT assay
Format: functional, cell-based
Applied conditions: MDA-MB-231, 120 h
Parameter measured: IC50 (µM)

structure=Cc1cc(Nc2nc(NCc3ccccc3Cl)nc3[nH]ncc23)n[nH]1 result_units=µM result_number=4.21
structure=Cc1cc(Nc2nc(NCc3ccc(Cl)cc3)nc3c2cnn3C2CCOCC2)n[nH]1 result_units=µM result_number=9.42
structure=COc1c(Nc2cc(C)[nH]n2)nc(Sc2ccc(S(=O)(=O)Cc3cccc([N+](=O)[O-])c3F)cc2F)nc1N1CCOCC1 result_units=µM result_number=8.69
structure=Fc1ccc(CNc2nc(Nc3cc(C4CC4)[nH]n3)c3cnn(C4CCOCC4)c3n2)c(F)c1 result_units=µM result_number=2.56
structure=CCc1cc(Nc2nc(NCc3ccc(F)cc3F)nc3c2cnn3C2CCOCC2)n[nH]1 result_units=µM result_number=2.79
structure=Cc1cc(Nc2nc(NCc3ccc(F)cc3F)nc3c2cnn3C2CCOCC2)n[nH]1 result_units=µM result_number=2.88
structure=Cc1cc(Nc2nc(NCc3ccc(F)cc3F)nc3c2cnn3C(C)C)n[nH]1 result_units=µM result_number=5.35
structure=Cc1cc(Nc2nc(NCc3ccccc3F)nc3[nH]ncc23)n[nH]1 result_units=µM result_number=9.85
structure=Cc1cc(Nc2nc(NCc3ccc(F)cc3F)nc3[nH]ncc23)n[nH]1 result_units=µM result_number=2.67

* * *

System: BT-474
Assay summary: Antiproliferative activity against human BT-474 cells assessed as cell growth inhibition incubated for 5 days by MTT assay
Assay type: functional, cell-based
Applied conditions: BT-474, 120 h
Parameter measured: IC50 (µM)

structure=Cc1cc(Nc2nc(NCc3ccccc3Br)nc3[nH]ncc23)n[nH]1 parameter_measured=IC50 result_number=10.1
structure=Cc1cc(Nc2nc(NCc3cccc(Cl)c3)nc3[nH]ncc23)n[nH]1 parameter_measured=IC50 result_number=12.8
structure=Cc1cc(Nc2nc(NCc3ccc(Cl)cc3)nc3[nH]ncc23)n[nH]1 parameter_measured=IC50 result_number=11.7
structure=Cc1cc(Nc2nc(NCc3ccc(C#N)cc3)nc3[nH]ncc23)n[nH]1 parameter_measured=IC50 result_number=12.1
structure=Cc1cc(Nc2nc(NCc3ccc(F)cc3)nc3[nH]ncc23)n[nH]1 parameter_measured=IC50 result_number=8.75
structure=Cc1cc(Nc2nc(NCc3ccccc3F)nc3[nH]ncc23)n[nH]1 parameter_measured=IC50 result_number=13.2
structure=Fc1ccc(CNc2nc(Nc3cc(C4CC4)[nH]n3)c3cnn(C4CCOCC4)c3n2)c(F)c1 parameter_measured=IC50 result_number=7.24
structure=Cc1cc(Nc2nc(NCc3ccc(Cl)cc3)nc3c2cnn3C(C)C)n[nH]1 parameter_measured=IC50 result_number=13

Cited source for all entries: ChEMBL document CHEMBL5113403
